Method: Solubilisation studies (visual appearance and RP-HPLC solubility after equilibration overnight at 25°C)
Assay type: physicochemical
Condition Notes: 1% acetic acid in saline; 5 mg/ml antide added; pH 3.12; not quantified; read-out: drug solubility
Square brackets hold non-standard residues; d marks the D form. Peptide text beside a SMILES is read from it. * marks the point of attachment. dPhe(4-Cl) = N[C@H](Cc1ccc(Cl)cc1)C(=O)O; d2Nal = N[C@H](Cc1ccc2ccccc2c1)C(=O)O; Lys(iPr) = CC(C)NCCCC[C@H](N)C(=O)O; d3Pal = N[C@H](Cc1cccnc1)C(=O)O; Nicotinoyl = O=C(c1cccnc1)*
Reported Endpoint: Solubility

For record CC(=O)N[C@H](Cc1ccc2ccccc2c1)C(=O)N[C@H](Cc1ccc(Cl)cc1)C(=O)N[C@H](Cc1cccnc1)C(=O)N[C@@H](CO)C(=O)N[C@@H](CCCCNC(=O)c1cccnc1)C(=O)N[C@H](CCCCNC(=O)c1cccnc1)C(=O)N[C@@H](CC(C)C)C(=O)N[C@@H](CCCCNC(C)C)C(=O)N1CCC[C@H]1C(=O)N[C@H](C)C(N)=O [antide] (Ac-[d2Nal][dPhe(4-Cl)][d3Pal]SK(Nicotinoyl)[dK](Nicotinoyl)L[Lys(iPr)]P[dA]-NH2) the listed Solubility is < 5000 µg/mL
